- subjectOfTest: RSV F on RSV-A2 virus (Respiratory syncytial virus (RSV-A2))
- assaySummary: cell-based or functional assay
// reported Neutralization IC50 (RSV subtype A) for each item listed
readoutType: Neutralization IC50 (RSV subtype A) (µg/mL)

- binder: "ADI-41289 (antibody, V domains shown) VH: EVQLVQSGAEVKKPGESLKISCKGSGYSFSSFWIGWVRQMPGKGLEWMGIIYPGDSDTRYSPSFQGQVTISADQSIRTAYLQWNSLKASDTGLYYCAKGGLGDVEMATIAVWGQGTLVTVSS VL: QSVLIQPASVSGSPGQSITIPCTGTSSDVGSYNLVSWYQHHPGKAPKLIISEGSKRPLGVSNRFSGSKSGNTASLTISGLQAEDEADYYCSSYVRSRTFNYVFGTGTKLTVL"
  readoutType: "Neutralization IC50 (RSV subtype A)"
  op: ">"
  observedResult: 25
- binder: "ADI-41293 (antibody, V domains shown) VH: QVQLQQSGPGLAKPSQTLSLTCTVSGGPISGVDYYWSWIRQPPGKGLEWIGYIYYSGSTYYNPSLKSRVTISVDTSKKQFSLKMSSVTAADTAVYYCARDVGATPYYYYGMDVWGQGTTVTVSS VL: DIVLTQSPDTLSLSPGERATLSCRASQSVRSNYLAWYQHKPGQAPRLLIYGASSRVAGIPDRFSGSGSGTDFTLTISRLEPEDFAVYYCQQYGSSPPSVTFGGGTKVEIK"
  readoutType: "Neutralization IC50 (RSV subtype A)"
  op: "="
  observedResult: 0.159
